# measured_on: TNFα (Homo sapiens, UniProt P01375)
# Sequence (P01375 77-233 limits assumed): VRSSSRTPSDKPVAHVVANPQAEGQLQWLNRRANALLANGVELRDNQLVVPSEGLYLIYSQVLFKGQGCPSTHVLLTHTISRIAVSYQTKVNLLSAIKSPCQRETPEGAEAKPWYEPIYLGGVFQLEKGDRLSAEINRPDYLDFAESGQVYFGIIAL
# protocol_summary: TNF-Induced HEK-Blue Assay
# Type: cell-based
# details: HEK-Blue-CD40L cells, NF-kB-driven secreted alkaline phosphatase reporter; TNFα 0.5 ng/ml; 18 h; read-out: TNF induced HEK-Blue assay IC50 value
pIC50: −log10 of the molar value. Positions of bridges follow the written chain, without caps; N, C: chain ends. Non-standard residues stand in square brackets, D forms with d. Residues, ends and D or L forms follow the SMILES beside them. Bip = N[C@@H](Cc1ccc(-c2ccccc2)cc1)C(=O)O; Val(3-OH) = CC(C)(O)[C@H](N)C(=O)O; h4Pal = N[C@@H](CCc1ccncc1)C(=O)O; Sar = CNCC(=O)O
value_kind: pIC50

Prompt: Could you share which pIC50 value was measured for CC(C)C[C@@H]1NC(=O)[C@H](Cc2ccc(O)cc2)NC(=O)[C@H](C(C)C)NC(=O)[C@@H]2CCCN2C(=O)[C@H](Cc2ccc(O)cc2)NC(=O)[C@H](CCCNC(=N)N)NC(=O)[C@H](CC(=O)O)NC(=O)[C@@H]2CCCN2C(=O)CN(C)C(=O)[C@H](Cc2ccc(-c3ccccc3)cc2)NC(=O)[C@H](Cc2ccc(-c3ccccc3)cc2)NC(=O)[C@H](C(C)(C)O)NC(=O)CSC[C@@H](C(=O)NCC(N)=O)NC1=O [Example 111] ({CH2CO}-[Val(3-OH)][Bip][Bip][Sar]PDRYPVYLCG-NH2; thioether N-13) ?
Completion: 5.70 to 6.70

***
Prompt: Could you share which pIC50 value was measured for CC(C)C[C@@H]1NC(=O)[C@H](CCCNC(=N)N)NC(=O)[C@H](C(C)C)NC(=O)[C@@H]2CCCN2C(=O)[C@H](CCc2ccncc2)NC(=O)[C@H](CCCNC(=N)N)NC(=O)[C@H](CC(=O)O)NC(=O)[C@@H]2CCCN2C(=O)CN(C)C(=O)[C@H](Cc2ccc(-c3ccccc3)cc2)NC(=O)[C@H](Cc2ccc(-c3ccccc3)cc2)NC(=O)[C@H](Cc2ccccc2)NC(=O)CSC[C@@H](C(=O)NCC(N)=O)NC1=O [Example 24] ({CH2CO}-F[Bip][Bip][Sar]PDR[h4Pal]PVRLCG-NH2; thioether N-13) ?
Completion: 5.70 to 6.70

---

# measured_on: TNFα (Homo sapiens)
# protocol_summary: TNF-Induced HEK-Blue Assay
# Assay type: cell-based
# details: HEK-Blue-CD40L cells, NF-kB-driven secreted alkaline phosphatase reporter; TNFα 0.5 ng/ml; 18 h; read-out: TNF induced HEK-Blue assay IC50 value
Positions of bridges follow the written chain, without caps; N, C: chain ends. Non-standard residues stand in square brackets, D forms with d. Residues, ends and D or L forms follow the SMILES beside them. Phe(4-(3-Py)) = N[C@@H](Cc1ccc(-c2cccnc2)cc1)C(=O)O; Ala(morpholin-4-yl) = N[C@@H](CN1CCOCC1)C(=O)O; Bip = N[C@@H](Cc1ccc(-c2ccccc2)cc1)C(=O)O; 3Pal = N[C@@H](Cc1cccnc1)C(=O)O; Sar = CNCC(=O)O
value_kind: IC50

Prompt: # query: IC50 | item CC(C)[C@@H]1NC(=O)[C@H](CCCNC(=N)N)NC(=O)[C@H](C(C)C)NC(=O)[C@@H]2CCCN2C(=O)[C@H](C(C)C)NC(=O)[C@H](CCCNC(=N)N)NC(=O)[C@H](CC(=O)O)NC(=O)[C@@H]2CCCN2C(=O)CN(C)C(=O)[C@H](Cc2ccc(-c3ccccc3)cc2)NC(=O)[C@H](Cc2ccc(-c3cccnc3)cc2)NC(=O)[C@H](CN2CCOCC2)NC(=O)CSC[C@@H](C(=O)NCC(N)=O)NC1=O [Example 88] ({CH2CO}-[Ala(morpholin-4-yl)][Phe(4-(3-Py))][Bip][Sar]PDRVPVRVCG-NH2; thioether N-13) | system: TNFα (Homo sapiens)
Completion: 200 to 2000 nM

Continuing:
Prompt: Field: IC50 (TNFα (Homo sapiens)). Entry: CC(C)C[C@@H]1NC(=O)[C@H](CCCNC(=N)N)NC(=O)[C@H](C(C)C)NC(=O)[C@@H]2CCCN2C(=O)[C@H](Cc2cccnc2)NC(=O)[C@H](CCCNC(=N)N)NC(=O)[C@H](CC(=O)O)NC(=O)[C@@H]2CCCN2C(=O)CN(C)C(=O)[C@H](Cc2ccc(-c3ccccc3)cc2)NC(=O)[C@H](Cc2ccc(-c3ccccc3)cc2)NC(=O)[C@H](CN2CCOCC2)NC(=O)CSC[C@@H](C(=O)NCC(N)=O)NC1=O [Example 54] ({CH2CO}-[Ala(morpholin-4-yl)][Bip][Bip][Sar]PDR[3Pal]PVRLCG-NH2; thioether N-13)
Completion: 50 to 200 nM
